- test_protocol: Solubility of ondansetron in pMDI medium
- Format: physicochemical
- experimental_parameters: HFA 134a with ethanol (9:1) (pMDI medium), organic solvent or mixture, thermodynamic from solid, HFA 134a with Ethanol (9:1), read-out: Solubility in HFA 134a with Ethanol (9:1), Average (RSD)
readout_kind: solubility at 8 days (µg/mL)
Report the value in µg/mL with no unit label.

Entry Cc1nccn1CC1CCc2c(c3ccccc3n2C)C1=O (stereo not shown) : reported solubility at 8 days = ?
202

---

- test_protocol: Solubility of ondansetron in pMDI medium
- Format: physicochemical
- experimental_parameters: HFA 134a with ethanol (9:1) (pMDI medium), organic solvent or mixture, thermodynamic from solid, HFA 134a with Ethanol (9:1), read-out: Solubility in HFA 134a with Ethanol (9:1), single determinations
readout_kind: solubility at 8 days (µg/mL)
Report the value in µg/mL with no unit label.

Entry Cc1nccn1CC1CCc2c(c3ccccc3n2C)C1=O (stereo not shown) : reported solubility at 8 days = ?
199
